Tested on: SNB-19
Test: NCI tumour cell line growth inhibition, 48 h
Activity calls are given as the source filed them. Cut-off read from the data, not from the text of the source: active = GI50 up to about 1.1 µM and inactive = higher.
endpoint: GI50

molecule	GI50
Cc1nc(-c2ccc([N+](=O)[O-])cc2)cn2c1nc1ccccc12	65.8 µM (inactive)
N#C/C(=C\c1ccccc1)C(NO)Nc1ccccc1 (stereo not given)	60.4 µM (inactive)
CCCCCCCCCCCCCCCCOCC(CC(F)(F)P(=O)(OCC)OCC)OC(C)=O (stereo not given)	3.21 µM (inactive)
CC(=O)Oc1cc2c(cc1OCC(F)(F)F)[C@H]1CC[C@]3(C)[C@@H](OC(C)=O)CC[C@H]3[C@@H]1CC2=O	18.8 µM (inactive)

Now turn to the next molecule.
Req: Entry Fc1ccc(/N=C/C=C/Nc2ccc(F)cc2)cc1 , system SNB-19: what GI50 was measured?
Resp: 13.3 µM (inactive)

* * *

Tested on: NCI-H226
Test: NCI tumour cell line growth inhibition, 48 h
Activity calls are given as the source filed them. Rule as the data show it: active = GI50 up to about 1.1 µM and inactive = higher.
Output constraint: value belongs to yes (active), no (inactive)

Example entries and their recorded answers appear below.
compound	classification
Cn1c(=O)[nH]c2sc3c(c2c1=N)CCCC3	no
O=C(c1ccccc1)c1ccc(OCCOc2ccc(Nc3ccccc3)cc2)cc1	no
CC1CN=C(Nc2cccc(F)c2)S1 (stereo not given)	no

Req: I would be grateful if you could indicate the recorded call for COC1C2c3ccccc3C(C#N)(Cc3ccc4c(c32)OCO4)N1C(=O)c1ccccc1 (stereo not given) .
Resp: no

Req: Recorded test outcome, item C(=N\Cc1ccccc1)/c1ccccc1-c1ccccc1/C=N/Cc1ccccc1
Resp: no

Req: Please state the recorded outcome for this compound: O=C1C(c2ccc(Cl)cc2)=[N+]([O-])c2ccccc21
Resp: no

Req: # lookup: test call for CCCCCCCCCCCC(=O)C1=C(O)CC(O)CC1=O (stereo not given)
Resp: no

Req: Which outcome was assigned to C#Cc1cc(CN(CC(=O)OC(C)(C)C)CC(=O)OC(C)(C)C)nc(CN(CC(=O)OC(C)(C)C)CC(=O)OC(C)(C)C)c1 in this test?
Resp: yes

Req: // param item: COc1ccc(SCc2cc(OC)ccc2OC)cc1 ; yields the recorded call
Resp: no

Req: For CCCCCCCCCCN(CCCCCCCCCC)C(=O)COc1c2cc(C(C)(C)C)cc1Cc1cc(C(C)(C)C)cc(c1OCC(=O)N(CCCCCCCCCC)CCCCCCCCCC)Cc1cc(C(C)(C)C)cc(c1OCC(=O)N(CCCCCCCCCC)CCCCCCCCCC)Cc1cc(C(C)(C)C)cc(c1OCC(=O)N(CCCCCCCCCC)CCCCCCCCCC)C2 , which call appears in the assay record?
Resp: no

* * *

System: U-251
Test: NCI tumour cell line growth inhibition, 48 h
The source made the active and inactive calls. Cut-off read from the data, not from the text of the source: active = GI50 up to about 1.1 µM and inactive = higher.
Reported GI50 by item:

compound	GI50
O=C1c2ccccc2C(=O)c2c(NCC3CO3)cccc21 (stereo not given)	14 µM (inactive)

Req: Report GI50 for CNC1NC(=O)c2ccccc2N1Cc1ccc(F)cc1 (stereo not given) please.
Resp: > 100 µM (inactive)

Req: Given the entry C=C[C@H]1CN2CCc3c([nH]c4c([C@H]5CCCN5C)c(O)ccc34)[C@@H]2C[C@@H]1C[C@H]1c2[nH]c3ccccc3c2CCN1C , report its measured GI50.
Resp: 1.43 µM (inactive)

Req: Tell me the measured GI50 of C#CCSc1nc(N)c2ncn(C3OC(CO)C(O)C3O)c2n1 (stereo not given) , please.
Resp: > 100 µM (inactive)

Req: Fill in: GI50 of CSc1ncc2c(C#N)c3n(C)c4ccccc4n3c(=O)c2n1 is ___
Resp: > 100 µM (inactive)

Req: Dear colleague, I am looking for the recorded GI50 of the following compound: O=C1c2ccccc2-n2c1nc1cc(Cl)ccc1c2=O
Resp: 51.4 µM (inactive)

Req: Quick one: GI50 for COC(=O)CC1C(COC(C)=O)OC(n2cc(C)c(=O)[nH]c2=O)C1OC(C)=O (stereo not given) ?
Resp: > 100 µM (inactive)

Req: Which measured GI50 value corresponds to N#CC1CC2(CCN1C(=O)c1ccccc1)OCCO2 (stereo not given) ?
Resp: > 100 µM (inactive)

Req: Consider the compound Oc1ccc(-c2c3ccccc3c(-c3ccc(O)cc3)c3ccccc23)cc1 and give its measured GI50.
Resp: > 100 µM (inactive)

Req: Look up GI50: COc1ccc(/C=C/c2cnnc3ccccc23)cc1OC
Resp: > 10 µM (inactive)

* * *

System: NCI/ADR-RES
Assay: NCI tumour cell line growth inhibition, 48 h
Calls of active or inactive are those of the source. No stated cut-off is given here; in the data, active = GI50 up to about 1.1 µM and inactive = higher.
// one of true for active, false for inactive, no free text

molecule	classification
CCC1(O)CC(OC2CC(N(C)C)C(OC3CC4OC5CC(=O)C(C)OC5OC4C(C)O3)C(C)O2)c2c(cc3c(c2O)C(=O)c2c(O)ccc(O)c2C3=O)C1C(=O)OC (stereo unspecified)	true
CCOC(=O)C12C3CCC1C2C(=O)C3 (stereo unspecified)	false
O=c1[nH]ncc2[nH]c3c(c12)CCc1ccccc1-3	false
Cn1c(=O)c2ccccc2c2ccccc21	false
O=c1nc2n(cc1/C=C\Br)C1CC(O)C(CO2)O1 (stereo unspecified)	false

With those in mind, consider the next molecule.
Req: For this molecule, state the assay outcome: CN(C)Cc1cc(O)c(O)c(CN(C)C)c1
Resp: false

* * *

Test system: RXF 393
Experiment: NCI tumour cell line growth inhibition, 48 h
Active and inactive are the calls of the source. No stated cut-off is given here; in the data, active = GI50 up to about 1.1 µM and inactive = higher.
Recorded GI50 by entry

compound	result
N#CCCN(CCC#N)c1ccc(C(/N=N/c2ccc(Cl)cc2)=N\c2ccccc2)cc1	15.4 µM (inactive)
CC(C)(C)c1cc2nc(c1)C(C(F)(F)F)(C(F)(F)F)OB(Br)OC2(C(F)(F)F)C(F)(F)F	10 µM (inactive)
COC(=O)CC1C(COC(C)=O)OC(n2cc(C)c(=O)[nH]c2=O)C1OC(C)=O (stereo not given)	> 100 µM (inactive)
CC(C)(C)N/N=N/c1cn(C2OC(CO)C(O)C2O)c(=O)[nH]c1=O (stereo not given)	61.4 µM (inactive)
Cc1ccccc1C(=N)c1ccccc1Cc1cccc2ccccc12	5.93 µM (inactive)

# ---- query compound ----
Req: Data request, read-out GI50, for COc1ccc(OC)c2cc(Cc3ccc(N(C)C)cc3)c(=O)c(Cc3ccc(N(C)C)cc3)cc12
Resp: > 100 µM (inactive)

* * *

Test system: SR
Test: NCI tumour cell line growth inhibition, 48 h
Active and inactive are the calls of the source. No stated cut-off is given here; in the data, active = GI50 up to about 1.1 µM and inactive = higher.
Field 'call' accepts y (active), n (inactive)

Illustrative cases are given below, each with its answer.
compound	study_system	classification
Nc1ccccc1CCN1CCN(CCCc2ccccc2)CC1	SR	n
CC(C)(C)N1C(=O)c2ccccc2C1(O)C(F)(F)F (stereo unspecified)	SR	n
CC(=O)Nc1ccc(-c2nc3ccccc3s2)cc1C	SR	n
Cc1ccc(S(=O)(=O)C(CC(=O)N2CCCC2)C(=O)c2ccccc2)cc1 (stereo unspecified)	SR	n
CCOC(=O)C(C)c1nc2cc(F)c(N3CCOCC3)cc2[nH]c1=O (stereo unspecified)	SR	n

Req: Recorded test outcome, item CCCCCC(=O)n1[nH]c(=O)n(-c2ccc(OC)cc2)c1=O
Resp: n

* * *

Test system: M14
Assay: NCI tumour cell line growth inhibition, 48 h
Active and inactive are the calls of the source. No stated cut-off is given here; in the data, active = GI50 up to about 1.1 µM and inactive = higher.
endpoint: GI50

Req: Quick one: GI50 for CC1=NN(C(=O)c2ccc(Cl)cc2)C(=O)/C1=C/c1ccco1 ?
Resp: > 100 µM (inactive)

* * *

Test system: IGROV-1
Test: NCI tumour cell line growth inhibition, 48 h
The source made the active and inactive calls. Rule as the data show it: active = GI50 up to about 1.1 µM and inactive = higher.
endpoint: GI50

molecule	study_system	result
CCOC(=O)C1=CC(C)(C(=O)OCC)Nc2c(nc(OC)n(C)c2=O)N1 (stereo unspecified)	IGROV-1	> 10 µM (inactive)
CCOC(=O)Cc1nnc2c(-c3ccccc3)nc3ccccc3n12	IGROV-1	85.7 µM (inactive)
O=C(CSc1nnc(Cc2ccccc2)o1)Nc1ccccc1	IGROV-1	> 100 µM (inactive)

Req: Give its GI50 value. Item: Cc1ccc(C)c(NC(=O)C(=O)C2C(=O)C3=C(CC2(C)C)Nc2ccccc2S3)c1 (stereo unspecified)
Resp: 69.7 µM (inactive)

Req: I would be grateful if you could share the reported GI50 for O=C1NC(=O)C(Cc2ccccc2)(c2cccnc2)N1 (stereo unspecified) .
Resp: > 100 µM (inactive)

Req: Field request: GI50 | item: O=[N+]([O-])c1ccc2nc(O)n[n+]([O-])c2c1
Resp: > 100 µM (inactive)

* * *

System: KM12
Experiment: NCI tumour cell line growth inhibition, 48 h
The source made the active and inactive calls. Rule as the data show it: active = GI50 up to about 1.1 µM and inactive = higher.
Quick list: GI50 per entry.

Known GI50 results, listed for orientation:
molecule	GI50
COC(=O)CC1C(COC(C)=O)OC(n2cc(C)c(=O)[nH]c2=O)C1OC(C)=O (configuration not stated)	> 100 µM (inactive)
O=[N+]([O-])c1ccc2c(c1)Sc1ccccc1N2CCCCCl	> 100 µM (inactive)
O=C1c2cc([N+](=O)[O-])ccc2NC2C(O)c3ccccc3N12 (configuration not stated)	42.7 µM (inactive)
O=C(NC(CO)CO)c1ccc2cc(C(=O)N3CC(CCl)c4ccc([N+](=O)[O-])cc43)[nH]c2c1 (configuration not stated)	> 100 µM (inactive)
CC1(C)C2CC(=O)C1(C)C(O)C2Br (configuration not stated)	> 100 µM (inactive)
C[N+](C)(C)C(C1=CCCC1=O)c1ccccc1 (configuration not stated)	19 µM (inactive)
CCCNCCCC(NC(C)=O)C(=O)NCc1ccccc1 (configuration not stated)	> 100 µM (inactive)
Nc1ccc2c(c1)C(=O)c1ccc(F)cc1-2	> 100 µM (inactive)

Req: For the molecule shown here, NCC(O)CSCc1ccc(Cl)cc1 (configuration not stated) , give the reported GI50.
Resp: > 100 µM (inactive)

Req: Form field: reported GI50 of N=C(N)N/N=C(/c1ccccc1)c1ccc(O)cc1O
Resp: 30.5 µM (inactive)

Req: Param item = CCN(CC)C(=C(C(Cl)=C(Cl)Cl)[N+](=O)[O-])N(CC)CC ; retrieve measured GI50.
Resp: > 100 µM (inactive)

Req: What value of measured GI50 is listed for Cc1cc2c(c3c1c1ccccc1n3C)C(=O)c1ccccc1C2=O ?
Resp: > 100 µM (inactive)
